Test system: OVCAR-3 ovarian
Experiment: NCI-60 one-dose screen, 48 h (100 = growth as untreated, 0 = no growth, -100 = all killed)
Settings: 10 µM unless noted
The panel holds about 83,000 compounds, 20% with a hit somewhere; the sample as a whole holds those more often.
ASSAY_ENDPOINT: growth (%)

In [3]: df
Out[3]:
                                   molecule           system  measurement_units  readout_number
0  O=C1Nc2ccccc2/C1=C/c1cn(CC(O)Cn2cc(/C=C3\C(=O)Nc4ccccc43)c3ccccc32)c2ccccc12 (centres undefined)  OVCAR-3 ovarian                  %           -85.1
1  COc1cc(CNC(=O)CCCC/C=C/C(C)C)ccc1OCc1nnc(Nc2ccccc2F)o1  OVCAR-3 ovarian                  %            68.3
2  CCOC(=O)c1csc(-c2ccc(COC(=O)c3ccccc3)o2)n1  OVCAR-3 ovarian                  %             116
3  CCc1c(C)c2ccc(OCC(=O)N=Nc3c(O)[nH]c4ccccc34)c(C)c2oc1=O  OVCAR-3 ovarian                  %           -58.2
4         CCCCCc1ccnc(CC(=O)c2ccc(OC)cc2)c1  OVCAR-3 ovarian                  %            93.7
5  CNc1ccc(Nc2ccc(S(=O)(=O)O)cc2)c2c1C(=O)c1ccccc1C2=O  OVCAR-3 ovarian                  %             121
6      CC(=N\N=C(N)N)/C(=N/N=C(N)N)c1ccccc1  OVCAR-3 ovarian                  %            97.9
7  Cc1ncc(C(=O)Nc2ccc(CN3CCN(C)CC3)c(C(F)(F)F)c2)cc1C#Cc1cnc(NC2CC2)c2ncccc12  OVCAR-3 ovarian                  %           -90.4
8     c1ccc(C(=NNc2nc3ccccc3o2)c2ccccn2)nc1  OVCAR-3 ovarian                  %            16.5

* * *

Tested on: SR leukemia
Experiment: NCI-60 one-dose screen, 48 h
Conditions: 10 µM unless noted
About 83,000 compounds went through this panel and 20% of them were active in at least one assay; those are over-represented in the sample as a whole. Calls of active or inactive are those of the source. Rule for the calls: active = growth percent below 10; inactive = the rest.
Outcome codes: 1 for active, 0 for inactive

COMPOUND	SYSTEM	DISCRETE_LABEL
O=C(Nn1cnc2ccccc21)N1CCCC1	SR leukemia	0
COc1cc2ncnc(-n3ncc4cc(NC(=O)Nc5ccc(Cl)c(C)c5)ccc43)c2cc1OC	SR leukemia	0
COC(=O)[C@H](Cc1cn(C)cn1)NC(=O)[C@H](CC(=O)OCc1ccccc1)NC(=O)Nc1cc(C(F)(F)F)cc(C(F)(F)F)c1	SR leukemia	1
COc1ccc2c(c1)/C(=C1/S/C(=N/c3nnc(C)s3)NC1=O)C(=O)N2Cc1ccc(Br)cc1	SR leukemia	0
CCN(CC)C(=O)C1(C)CCCC2(C)c3cc(OC(C)=O)ccc3CCC12 (stereo not drawn)	SR leukemia	0
COc1cc2ncnc(-n3ncc4cc(NC(=O)Nc5ccccc5)ccc43)c2cc1OC	SR leukemia	0
CCOc1nc(-c2ccccc2)cc2c(O)c(C(=O)N/N=C/c3ccccc3O)[nH]c(=O)c12	SR leukemia	0
CC(=O)Nc1nc(C)c(C(=O)NNS(=O)(=O)c2ccccc2)s1	SR leukemia	0
O=C(Nc1ccc(-n2cc(-c3ccncc3)c(-c3ccc(Cl)c(O)c3)n2)cc1)c1cc(C(F)(F)F)cc(C(F)(F)F)c1	SR leukemia	0
N#CCc1ncc(-c2ccc(C(F)(F)F)cc2)c(NC2CCCCCC2)n1	SR leukemia	1
N#CCCCCCCCCCCC#N	SR leukemia	0
CCCCN(CCCC)CCCNc1c2c(nc3ccc(Cl)cc13)CCCC2	SR leukemia	0
COc1cc(Cn2ccc3c2-c2oncc2CC3)cc(OC)c1	SR leukemia	0
N=C(N)c1ccc(-c2ccc(-c3ccc(F)cc3)s2)cc1	SR leukemia	1
COc1cc(CNC(=O)CCCC/C=C/C(C)C)ccc1OCc1nnc(Nc2ccccc2F)o1	SR leukemia	0
CC(=O)N1CCN(CCNC(=O)n2cc(-c3ccncc3)c(-c3cc(O)cc(Cl)c3)n2)CC1	SR leukemia	0
C[C@@H](c1ccc2c(c1)[nH]c1ccc(Cl)cc12)c1nc2ccc(Cl)cc2[nH]1	SR leukemia	0
COc1ccc(C(O)(c2ccccc2)C(C(=O)O)c2ccccc2)cc1 (stereo not drawn)	SR leukemia	0
CCCCCC(=C/c1ccccc1)/C=N/N=C(N)N	SR leukemia	1
CC(=O)OCC1O[C@@H](OC(C)=O)[C@@H](NC(=O)NS(=O)(=O)c2ccccc2)C(OC(C)=O)[C@@H]1OC(C)=O (stereo partly drawn)	SR leukemia	0
CCCNC(=O)Oc1ccc(/C(=C(/CC)Cc2ccccc2)c2ccc(OCCN(CC)CC)cc2)cc1	SR leukemia	1
COC(=O)[C@@H]1[C@H](O)[C@H](C)[C@H](O)[C@H](C)/C=C\C=C(C)C(=O)Nc2c(C)c(OC(C)=O)c3c(c2O)C(=O)C(C)=C2OCOC(=C23)C(C)=C[C@@](C)(O)[C@H](O)[C@@H](C)[C@H]1OC(C)=O	SR leukemia	0
COc1cc2ncnc(Nc3ccc4c(cnn4C(=O)Nc4ccccc4)c3)c2cc1OC	SR leukemia	1
CCCC(=O)NNc1[nH]c(-c2cc(OC)c(OC)c(OC)c2)cc1C(=O)OCC	SR leukemia	0
CCOC(=O)c1c2c(cn1Cc1ccccc1)-c1oncc1CC2	SR leukemia	0
COc1ccc(-c2cn3ccnc3c(-c3ccc4ncn(C5CCCCC5)c4c3)n2)cc1	SR leukemia	1
CC(Br)c1nc2ccccc2cc1C(N)=O (stereo not drawn)	SR leukemia	0
Cc1ccc(C(=O)NN)cc1	SR leukemia	0

* * *

Overview of reported growth across a group of molecules:
Tested on: A549/ATCC NSCLC
Assay: NCI-60 one-dose screen, 48 h (100 = growth as untreated, 0 = no growth, -100 = all killed)
Conditions: 10 µM unless noted
Description: Growth inhibition of the A549/ATCC human Non-Small Cell Lung tumor cell line is measured as a screen for anti-cancer activity. Cells are grown in 96 well plates and exposed to the test compound for 48 hours. Compounds are tested at a single concentration, which is 10^-5 M for most compounds. The reported endpoint is percent growth (GI% or GIPRCNT), where numbers from 0 - 100% represent growth inhibition, and numbers from -100% - 0 represent cell death. […]
About 83,000 compounds went through this panel and 20% of them were active in at least one assay; those are over-represented in the sample as a whole. The source made the active and inactive calls. How the source made its calls: active means growth percent below 10; inactive means the rest.
ASSAY_ENDPOINT: growth

                           substance_smiles            result
0  O=C(N/N=C\c1ccc(-c2ccc(Br)cc2)o1)c1cc2oc(-c3cccc(C(F)(F)F)c3)cc2[nH]1  38.3% (inactive)
1                                C=CCNCCC#N  99.2% (inactive)
2  COc1cc(-c2nn(-c3ccc(NC(=O)Nc4ccc(Cl)c(Cl)c4)cc3)cc2-c2ccncc2)ccc1Cl  25.8% (inactive)

* * *

System: MOLT-4 leukemia
Test: NCI-60 one-dose screen, 48 h
Details: 10 µM unless noted
About 83,000 compounds went through this panel and 20% of them were active in at least one assay; those are over-represented in the sample as a whole. Calls of active or inactive are those of the source. How the source made its calls: active means growth percent below 10; inactive means the rest.
Outcome codes: 1 (active), 0 (inactive)

                                   compound           system  discrete_label
0  CCC(C)[C@H](NC(=O)Nc1cc(C(F)(F)F)cc(C(F)(F)F)c1)C(=O)N[C@@H](Cc1cn(C)cn1)C(=O)OC (stereo partly drawn)  MOLT-4 leukemia               1
1           CCCCCC(=C/c1ccccc1)/C=N/N=C(N)N  MOLT-4 leukemia               1
2  COc1ccc(C(=O)NCCNc2nccc(-c3c(-c4ccc(F)cc4)nc4sccn34)n2)cc1  MOLT-4 leukemia               0

* * *

System: HOP-92 NSCLC
Test: NCI-60 one-dose screen, 48 h (100 = growth as untreated, 0 = no growth, -100 = all killed)
Settings: 10 µM
Compounds without any hit were thinned out: in the full panel of roughly 83,000, 20% have a hit.
Would you mind labelling by growth? At or over 90% is 1, under is -1.

>>> df
                                   compound  discrete_label
0             C/C(=N\Nc1cccc(Cl)n1)c1ccccn1              -1
1  CC(=O)OC1CC2C3CCC4C[C@@H](NC(=O)C=C(C)C)CC[C@]4(C)C3CC[C@]2(C)[C@H]1C(C)N(C)C (stereo partly specified)              -1
2  CCOC(=O)C1=C(C(F)(F)F)NC(=S)NC1CN1C(=O)c2ccccc2C1=O (stereo unspecified)              -1
3  O=C1c2cc([N+](=O)[O-])ccc2-c2cc(Cl)c(NC(=O)C(F)(F)F)cc21               1
4  CCNc1nnc(COc2ccc(CNC(=O)CCCC/C=C/C(C)C)cc2OC)o1               1
